Parameter: growth. Scope: all listed entries.
Test system: SN12C renal
assay-summary: NCI-60 one-dose screen, 48 h (100 = growth as untreated, 0 = no growth, -100 = all killed)
test-conditions: 10 µM unless noted
The panel holds about 83,000 compounds, 20% with a hit somewhere; the sample as a whole holds those more often.
Write it as a number; the unit % goes unstated.

Consider the following illustrative entries.
| smiles-text | growth [%] |
| --- | --- |
| CCc1ccc(CCCC(=O)O)cc1 | 93.7 |
| Cc1ccc2c(n1)C(=O)C(Br)=C(C1CCCC1)C2=O | 95.2 |
| Cc1c(O)cc(-c2cnc(Nc3ccccc3)s2)c(O)c1C | 94 |
| O=C(O)c1cn(C2CC2)c2cc(N3CCN(C(=O)N(c4ccccc4)c4nc(-c5ccccc5)cs4)CC3)c(F)cc2c1=O | 1.06 |
| COc1ccc(-c2nc3c(ncc4ccc(=O)[nH]c43)s2)cc1 | 78.2 |

Q. Given `CCSc1oc(-c2ccccc2)nc1[P+](c1ccccc1)(c1ccccc1)c1ccccc1` , state its recorded growth.
A. 3.37

Q. # iterate: `COc1ccc(C(=O)Nc2cccc(-c3cc(=O)c4c(OC)c(OC)c(OC)cc4o3)c2)cc1`
A. 50

Q. Also, `O=C(CN1CCOCC1)Nc1nc(-c2cc3ccccc3oc2=O)cs1` please.
A. 101

Q. Then `O=C(Nc1nc2ccc(C(=O)N3CCN(/C=C/c4ccccc4)CC3)cc2s1)c1ccc(NCCc2ccccc2)c([N+](=O)[O-])c1` ?
A. 61.3

Q. Subsequent entry: `CC1=NC2=Nn3c(c4cnn(-c5ccccc5)c4n/c3=N\N)NN2C(c2ccccc2)=C1`
A. -63.4

====

Test system: OVCAR-8 ovarian
assay-summary: NCI-60 one-dose screen, 48 h
test-conditions: 10 µM unless noted
The panel holds about 83,000 compounds, 20% with a hit somewhere; the sample as a whole holds those more often. Active and inactive are the calls of the source. Rule for the calls: active = growth percent below 10; inactive = the rest.
Bench note: report the call from t for active, f for inactive

Worked set:
| compound | class-assignment |
| --- | --- |
| Nc1nc2ccccc2c2c1S(=O)(=O)c1ccc(Cl)cc1C2=O | t |
| CC(C)(C)[Si](C)(C)OC1[C@@H](CNC(=O)NC(=O)NC(N)=O)O[C@@H](n2cnc3c(NC(=O)Nc4ccccc4)ncnc32)[C@H]1O[Si](C)(C)C(C)(C)C (some centres undefined) | f |
| CNc1nnc2n(-c3ccccc3)c(=O)c3cnn(-c4ccccc4)c3n12 | f |
| CC(C)c1ccc(C(=O)Nc2sc3c(c2C(N)=O)CCC(=O)C3)cc1 | f |
| COc1cc(OC)c(/C=C/C(=O)c2c(OC)cccc2OC)c(OC)c1 | f |

Q. Please let me know the test result on file for Cc1nc2sc(C(=O)Nc3ccc(Br)cc3)c(N)c2cc1C(O)c1ccccc1 (centres undefined) .
A. f

Q. What do you have for `C#COc1cccc(Nc2c(C#N)cnc3ncc(NC(=O)CCl)cc23)c1` ?
A. f

Q. // query: COC(=O)CC[C@H](C)[C@H]1CC[C@H]2[C@@H]3CC[C@@H]4CC5(CC[C@]4(C)[C@H]3CC(=O)[C@]12C)Nc1ccccc1NC5=NC(C)(C)C (some centres undefined)
A. f

Q. Same read-out for `C#CCOc1ccc2ncnc(Nc3ccc(NC(=O)C=C)cc3)c2c1` ?
A. t

====

Each item that follows carries a reported growth.
System: DU-145 prostate
assay-summary: NCI-60 one-dose screen, 48 h (100 = growth as untreated, 0 = no growth, -100 = all killed)
test-conditions: 10 µM unless noted
About 83,000 compounds went through this panel and 20% of them were active in at least one assay; those are over-represented in the sample as a whole.
All answers are understood in %, so give the number only.

| molecule | growth / % |
| --- | --- |
| O=C(Nc1cccc(Cl)c1)Nc1cccc(Cn2c(=O)[nH]c3ccc(Oc4ncccn4)cc3c2=O)c1 | 37.3 |
| Fc1cnccc1C1CC(c2ccc(N3CCNCC3)cc2)=NN1 (stereo not drawn) | 107 |
| COc1ccc(/C=C(\C#N)n2nnc3cc(F)c(F)cc32)cc1 | 47.6 |
| O=C(COc1ccc(-c2nc3cc(Cl)c(Cl)cc3[nH]2)cc1)N=Nc1c(O)[nH]c2ccc(Cl)cc12 | 74.6 |
| COCCOc1cc2ncnc(N3CCN(c4cc(S(C)(=O)=O)c(C)cc4Cl)CC3)c2cc1OCCOC | 96.8 |
| COc1ccc(-c2cc(-c3cccnc3)nc3sc4c(=O)[nH]c(-c5ccc(Cl)cc5)nc4c23)cc1OC | 105 |
| Nc1nc2ccc(-c3nc4ccc5[nH]ncc5c4c4c3CCCC4)cc2s1 | 111 |
| [O-]/[N+](=C\c1ccc(-n2cc(Cc3ccccc3Cc3cn(-c4ccc(/C=[N+](/[O-])c5ccccc5)cc4)nn3)nn2)cc1)c1ccccc1 | 106 |
| C=C1C(=O)O[C@H]2[C@H]1CC/C(Cn1cc(-c3ccccc3)nn1)=C\CC[C@@]1(C)O[C@@H]21 | -61.8 |
| O=C(N/N=C/c1ccc(Cl)cc1)c1[nH]c2ccc(Cl)cc2c1-c1ccccc1 | -2.5 |

Shifting focus to the molecule that follows.
Q. Name the reported growth value associated with the molecule `Nc1n[nH]c2cccc(C#Cc3cccc(C(=O)Nc4cc(C(F)(F)F)cc(C(F)(F)F)c4)c3)c12`
A. 91.5

====

Test system: CAKI-1 renal
assay-summary: NCI-60 one-dose screen, 48 h
test-conditions: 10 µM unless noted
About 83,000 compounds went through this panel and 20% of them were active in at least one assay; those are over-represented in the sample as a whole. Active and inactive are the calls of the source. The calls were made as follows: active = growth percent below 10; inactive = the rest.
Hi there, use one of these labels in your reply, thanks! active, inactive

Consider the worked cases shown below.
| compound | system-name | class-assignment |
| --- | --- | --- |
| O=S(=O)(Nc1ccc(Cl)c(C(F)(F)F)c1)c1ccc(-c2cnc(C3CC3)o2)cc1 | CAKI-1 renal | inactive |
| COc1ccc(/C=C/C(=O)c2cc3c(N)c(C(=O)Nc4cccc5ccccc45)sc3nc2C)cc1 | CAKI-1 renal | inactive |
| O=C1/C(=C\c2ccc3nccnc3c2)SC(=S)N1CCc1ccc(O)cc1 | CAKI-1 renal | inactive |
| COc1ccc(-c2nc3c(ncc4ccc(=O)[nH]c43)s2)cc1 | CAKI-1 renal | inactive |
| COc1ccc(C(=O)C/C(=C\c2ccc(Cl)cc2)C(=O)NCc2ccccc2)cc1 | CAKI-1 renal | inactive |
| O=c1scc(-c2ccc(C(F)(F)F)cc2)s1 | CAKI-1 renal | inactive |
| C=C(C)[C@@H]1CC[C@]2(C(=O)O)CC[C@]3(C)[C@H](CC[C@@H]4[C@@]5(C)CCC(NC(=O)c6cccc(OC(C)=O)c6OC(C)=O)C(C)(C)[C@@H]5CC[C@]43C)[C@@H]12 (stereo partly specified) | CAKI-1 renal | active |
| C=C(C)[C@@H]1CC[C@]2(CO)CC[C@]3(C)[C@H](CC[C@@H]4[C@@]5(C)CC[C@H](NCO)C(C)(C)[C@@H]5CC[C@]43C)[C@@H]12 | CAKI-1 renal | active |

Q. GET /call?item= `CC(C)=CC(=O)OCC(=O)O[C@@H]1C[C@]2(C(C)C)O[C@@]1(C)[C@@H]1CC[C@@H](C)[C@H]1[C@@H]2OC(=O)/C=C/c1ccccc1` returns the recorded outcome of this test.
A. inactive

Q. Now the compound `CCCCCOC(=O)c1c(C)[nH]c(/C=C2\N=C(c3ccc[nH]3)C=C2OC)c1C`
A. active

====

Tested on: SF-268 CNS
assay-summary: NCI-60 one-dose screen, 48 h
test-conditions: 10 µM unless noted
The panel holds about 83,000 compounds, 20% with a hit somewhere; the sample as a whole holds those more often. The source made the active and inactive calls. Rule for the calls: active = growth percent below 10; inactive = the rest.
Permitted responses: active, inactive

Solved cases (5 shown):
| smiles-text | class-assignment |
| --- | --- |
| C1CN(SSN2CCOCC2)CCO1 | active |
| Cn1cc(-c2csc(-c3cn(C(=O)OC(C)(C)C)c4ccc(Br)cc34)n2)c2ccnc(Cl)c21 | inactive |
| O=C(/C=C/c1cn(-c2ccccc2)nc1-c1ccc(Cl)cc1)c1ccc(F)cc1 | inactive |
| O=c1[nH]c(-c2ccccc2)nc2sc3cc(O)ccc3c12 | inactive |
| NC(N)=NCCCCCNc1noc(Cc2c[nH]c3cc(Br)ccc23)n1 | inactive |

Q. Recorded test outcome, item `CC(=O)c1c(C)nc2ccccc2c1/C=C/c1ccc(F)cc1`
A. inactive

====

System: UO-31 renal
assay-summary: NCI-60 one-dose screen, 48 h (100 = growth as untreated, 0 = no growth, -100 = all killed)
test-conditions: 10 µM unless noted
Compounds without any hit were thinned out: in the full panel of roughly 83,000, 20% have a hit.
Label rule met when growth >= 50%; otherwise rule not met.

Completed entries (count: 4):
| compound | class-assignment |
| --- | --- |
| CCSc1nc2scc(C)c2c(=O)[nH]1 | rule met |
| Cc1cc(C(=O)O)c(C)n1-c1cccc(C(=O)O)c1 | rule met |
| CN1CCN(C(=O)c2ccc(NC(=O)c3cc4c(nn3)NCCN4Cc3cc(Cl)ccc3Cl)cc2)CC1 | rule met |
| CCC(=O)Oc1ccc(-c2ccccc2)cc1Br | rule met |

Q. Dear colleague, could you confirm whether CC(=O)O[C@H]1CC2CCC3C(CC[C@@]4(C)C3C[C@H]([N+]3(C)CCCCC3)[C@@H]4OC(C)=O)[C@@]2(C)C[C@@H]1N1CCCCC1 (some centres undefined) has growth at or above 50%?
A. rule met

Q. Check `O=S(=O)(c1ccccc1)n1cc2c(c1)-c1nc(Nc3ncccn3)sc1CC2` too.
A. rule not met

Q. For `Cc1cc(N2CCN(CCNc3ccnc4cc(Cl)ccc34)CC2)nc(N2CCOCC2)n1` then?
A. rule not met

Q. Try `C=C(C)[C@@H]1CC[C@]2(C(=O)N3CCOCC3)CC[C@]3(C)[C@H](CC[C@@H]4[C@@]5(C)C/C(=C/c6ccncc6)C(=O)C(C)(C)[C@@H]5CC[C@]43C)[C@@H]12` next.
A. rule met

Q. // same read-out, input: `CCCCC1=C(P(=O)(O)O)N[C@H](C(=O)O)CS1`
A. rule met
